// provenance: paper PMC8504815

- experimental_details: Blood pharmacokinetics, multiple ascending dose
- Type: in vivo, human
- measurement_context: human, whole blood, oral, 100 mg, AUC0–24 h, MAD 100 mg q.d., Day 12; mean (SD)
parameter_measured: AUC(0-t) (ng·h/mL)
Express it in ng·h/mL; write the number only.

Sample `C=CC(=O)N(C)CCOc1c(N)ncnc1-c1cc(F)cc(NC(=O)c2ccc(C3CC3)cc2F)c1C` ; AUC(0-t) observed: 485

* * *

- experimental_details: Food effect
- Format: in vivo, human
- measurement_context: human, whole blood, oral, 60 mg, Tmax, 60 mg single dose, Fed; median (min-max)
parameter_measured: Tmax
Please provide the amount together with its unit, number first.

Record C=CC(=O)N(C)CCOc1c(N)ncnc1-c1cc(F)cc(NC(=O)c2ccc(C3CC3)cc2F)c1C [Remibrutinib] . Reported Tmax: 2.78 h

* * *

- experimental_details: Blood pharmacokinetics, multiple ascending dose
- Format: in vivo, human
- measurement_context: human, whole blood, oral, 100 mg, Cmax, MAD 100 mg b.i.d., Day 12; mean (SD)
parameter_measured: Cmax (ng/mL)
Return type: number; implicit unit ng/mL.

Just so you know, measured Cmax for `C=CC(=O)N(C)CCOc1c(N)ncnc1-c1cc(F)cc(NC(=O)c2ccc(C3CC3)cc2F)c1C` came out at 306

* * *

- experimental_details: Blood pharmacokinetics, multiple ascending dose
- Format: in vivo, human
- measurement_context: human, whole blood, oral, 200 mg, AUC0–12 h, MAD 200 mg b.i.d., Day 1; mean (SD)
parameter_measured: AUC(0-t) (ng·h/mL)
Provide the reading as a plain figure in ng·h/mL.

Form field AUC(0-t), entry C=CC(=O)N(C)CCOc1c(N)ncnc1-c1cc(F)cc(NC(=O)c2ccc(C3CC3)cc2F)c1C [Remibrutinib] : 464

* * *

- experimental_details: Blood pharmacokinetics, multiple ascending dose
- Type: in vivo, human
- measurement_context: human, whole blood, oral, 600 mg, AUC0–24 h, MAD 600 mg q.d., Day 1; mean (SD)
parameter_measured: AUC(0-t) (ng·h/mL)
The answer is to be given in ng·h/mL; state only the numeric part.

AUC(0-t) reported for this molecule C=CC(=O)N(C)CCOc1c(N)ncnc1-c1cc(F)cc(NC(=O)c2ccc(C3CC3)cc2F)c1C [Remibrutinib] : 1080

* * *

- experimental_details: Blood pharmacokinetics, multiple ascending dose
- Type: in vivo, human
- measurement_context: human, whole blood, oral, 600 mg, Tmax, MAD 600 mg q.d., Day 1; median (minimum-maximum)
parameter_measured: Tmax (min)
Field format: number, assumed min, no unit text.

compound `C=CC(=O)N(C)CCOc1c(N)ncnc1-c1cc(F)cc(NC(=O)c2ccc(C3CC3)cc2F)c1C` , Tmax observed: 45

* * *

- experimental_details: Blood pharmacokinetics, multiple ascending dose
- Assay type: in vivo, human
- measurement_context: human, whole blood, oral, 100 mg, AUClast, MAD 100 mg b.i.d., Day 12; mean (SD)
parameter_measured: AUC(0-t)
Number first, unit second: that is the form wanted.

Kindly note the recorded AUC(0-t) for C=CC(=O)N(C)CCOc1c(N)ncnc1-c1cc(F)cc(NC(=O)c2ccc(C3CC3)cc2F)c1C [Remibrutinib] , which is 518 ng·h/mL

* * *

- experimental_details: Blood pharmacokinetics, multiple ascending dose
- Type: in vivo, human
- measurement_context: human, whole blood, oral, 600 mg, AUC0–24 h, MAD 600 mg q.d., Day 12; mean (SD)
parameter_measured: AUC(0-t) (ng·h/mL)
Numeric answer only, unit ng·h/mL assumed.

Field AUC(0-t) (entry C=CC(=O)N(C)CCOc1c(N)ncnc1-c1cc(F)cc(NC(=O)c2ccc(C3CC3)cc2F)c1C [Remibrutinib] ) reads 1230
